Cited source for all entries: patent US10722484B2

# System: H358
# assay-info: Proliferation assay (CellTiter Glo)
# Format: cell-based
# condition-label: Homo sapiens, NCI-H358; HE58; absolute EC50; 96 hours; read-out: Ab EC50
property-measured: EC50 (nM)
Answers are plain numbers, in nM.

These solved cases illustrate the format of a correct answer.
- compound: "C/C=C(/C)C(=O)O[C@H]1C(C)=C[C@]23C(=O)[C@@H](C=C(CO)[C@@H](O)[C@]12O)[C@H]1[C@@H](C[C@H]3C)C1(C)C [Compound K102, ingenol-3-angelate]"
  experimental-value: 97
- compound: "CCCCCCCCCCCCCC(=O)O[C@@H]1[C@@H](C)[C@@]2(O)[C@@H](C=C(CO)C[C@]3(O)C(=O)C(C)=C[C@@H]23)[C@@H]2C(C)(C)[C@]12OC(C)=O [Compound K103, 12-O-Tetradecanoylphorbol-13-acetate]"
  experimental-value: 2.2
- compound: "CC(=O)O[C@H]1C(=O)[C@@]2(C)[C@H]([C@H](OC(=O)c3ccccc3)[C@]3(O)C[C@H](OC(=O)[C@H](O)[C@@H](NC(=O)c4ccccc4)c4ccccc4)C(C)=C1C3(C)C)[C@]1(OC(C)=O)CO[C@@H]1C[C@@H]2O"
  experimental-value: 2.4

Proceed to the following item.
Problem: // returns reported EC50 for input CC(=O)O[C@@]12C[C@@H](C)[C@@]3(O)[C@@H](C=C(CO)C[C@]4(O)C(=O)C(C)=C[C@@H]34)[C@@H]1C2(C)C [Compound K101A, 12-deoxyphorbol 13-acetate]
Result: 4900

* * *

# System: MiaPaCa-2
# assay-info: Proliferation assay (CellTiter Glo)
# Format: cell-based
# condition-label: Homo sapiens, MIA PaCa-2; MiaPaCa-2; relative EC50; 96 hours; read-out: Re EC50
property-measured: pEC50
Give bare numbers, as −log10 of the molar value.

These solved cases illustrate the format of a correct answer.
- molecule: "C/C=C(/C)C(=O)O[C@H]1C(C)=C[C@]23C(=O)[C@@H](C=C(CO)[C@@H](O)[C@]12O)[C@H]1[C@@H](C[C@H]3C)C1(C)C [Compound K102, ingenol-3-angelate]"
  system-under-test: "MiaPaCa-2"
  experimental-value: 8.05
- molecule: "CC(=O)O[C@H]1C(=O)[C@@]2(C)[C@H]([C@H](OC(=O)c3ccccc3)[C@]3(O)C[C@H](OC(=O)[C@H](O)[C@@H](NC(=O)c4ccccc4)c4ccccc4)C(C)=C1C3(C)C)[C@]1(OC(C)=O)CO[C@@H]1C[C@@H]2O"
  system-under-test: "MiaPaCa-2"
  experimental-value: 8.48
- molecule: "CCCCCCCCCCCCCC(=O)O[C@@H]1[C@@H](C)[C@@]2(O)[C@@H](C=C(CO)C[C@]3(O)C(=O)C(C)=C[C@@H]23)[C@@H]2C(C)(C)[C@]12OC(C)=O [Compound K103, 12-O-Tetradecanoylphorbol-13-acetate]"
  system-under-test: "MiaPaCa-2"
  experimental-value: 9.62

Proceed to the following item.
Problem: // returns reported pEC50 for input CC(=O)O[C@@]12C[C@@H](C)[C@@]3(O)[C@@H](C=C(CO)C[C@]4(O)C(=O)C(C)=C[C@@H]34)[C@@H]1C2(C)C [Compound K101A, 12-deoxyphorbol 13-acetate]
Result: 6.74
